Data provenance: patent US9580400B2

Each entry below carries its measured pKi, system: UniProtKB P34972.
Sequence (P34972 whole entry): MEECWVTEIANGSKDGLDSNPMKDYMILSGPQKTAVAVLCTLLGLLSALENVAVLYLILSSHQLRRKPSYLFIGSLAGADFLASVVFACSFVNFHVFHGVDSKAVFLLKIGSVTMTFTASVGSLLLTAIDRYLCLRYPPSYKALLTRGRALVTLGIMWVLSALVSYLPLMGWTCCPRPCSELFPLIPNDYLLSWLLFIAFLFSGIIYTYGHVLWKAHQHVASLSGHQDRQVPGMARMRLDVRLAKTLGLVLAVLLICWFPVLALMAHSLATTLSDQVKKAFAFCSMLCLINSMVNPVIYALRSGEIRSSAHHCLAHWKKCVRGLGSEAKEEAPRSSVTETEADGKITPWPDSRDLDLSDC
Please keep in mind that pKi is minus log10 of the molar concentration; only the number is needed.

Look up pKi for this molecule: CC1=CC[C@@H]2[C@@H](C1)c1c(O)cc(C(C)(C)CCCCO[N+](=O)[O-])cc1OC2(C)C [compound 1]
9.00

For the molecule shown here, C=C(C)[C@@H]1CCC(C)=C[C@H]1c1c(O)cc(C(C)(C)CCCCO[N+](=O)[O-])cc1O [compound 78] , give the reported pKi.
7.46

---

Listed here: molecules with reported pKi for rCB1 (Rattus norvegicus, UniProt P20272).
Entry type: numeric. Quantity: pKi, the -log10 of concentration in molar units.

                                   molecule  property  test_value
0  C=C(C)[C@@H]1CCC(C)=C[C@H]1c1c(O)cc(C(C)(C)CCCCO[N+](=O)[O-])cc1O [compound 78]       pKi        7.22

Read the next record carefully.
Can you share its pKi? I mean this molecule: CC1=CC[C@@H]2[C@@H](C1)c1c(O)cc(C(C)(C)CCCCO[N+](=O)[O-])cc1OC2(C)C [compound 1]
10.00
